- Test system: wheat variety Ritmo
- Test name: Plot trial: yield components
- Type: in vivo
- Protocol conditions: sprays at BBCH 39 and 59
Measured attribute: Harvest Index
Number only, please.

Consider the worked cases shown below.
Compound: CCCN(CC)CC1COC2(CCC(C(C)(C)C)CC2)O1 (centres unmarked)
Harvest Index: 59.3

Compound: OC(Cc1ccccc1Cl)(Cn1nc[nH]c1=S)C1(Cl)CC1 (centres unmarked)
Harvest Index: 59.3

Compound: CO/N=C(/C1=NOCCO1)c1ccccc1Oc1ncnc(Oc2ccccc2Cl)c1F
Harvest Index: 58.1

Kindly note the recorded Harvest Index for Cn1cc(C(=O)Nc2ccc(F)cc2-c2ccc(Cl)c(Cl)c2)c(C(F)F)n1 , which is 58.5

// Harvest Index lookup, compound = O=C(Nc1ccccc1-c1ccc(Cl)cc1)c1cccnc1Cl , result: 58.6

---

- Test system: infection-free wheat plants of the cultivar Passat
- Test name: Glasshouse trial: temperature of ears and leaves as measure of transpiration activity
- Format: in vivo
- Protocol conditions: BBCH 80; leaf
Measured attribute: Temperature (as a measure of the transpiration activity)

Consider the worked cases shown below.
Molecule: CO/N=C(/C1=NOCCO1)c1ccccc1Oc1ncnc(Oc2ccccc2Cl)c1F
Val: 16.5 °C
--
Molecule: Cn1cc(C(=O)Nc2ccc(F)cc2-c2ccc(Cl)c(Cl)c2)c(C(F)F)n1
Val: 16.4 °C
--
Molecule: OC(Cc1ccccc1Cl)(Cn1nc[nH]c1=S)C1(Cl)CC1 (stereo not shown)
Val: 16.6 °C

Temperature (as a measure of the transpiration activity) measured on CCCN(CC)CC1COC2(CCC(C(C)(C)C)CC2)O1 (stereo not shown) = 16.4 °C

---

- System: wheat variety Ritmo
- Test name: Plot trial in Germany: green leaf area by visual scoring
- Format: in vivo
- Protocol conditions: 7 days after second fungicide application; sprays at BBCH 39 and 59
Measured attribute: green leaf area of the flag leaf (% leaf area)
The figure you give is taken to be in % leaf area; do not add the unit.

Worked examples follow.
Compound: CO/N=C(/C1=NOCCO1)c1ccccc1Oc1ncnc(Oc2ccccc2Cl)c1F
green leaf area of the flag leaf / % leaf area: 98.7
//
Compound: OC(Cc1ccccc1Cl)(Cn1nc[nH]c1=S)C1(Cl)CC1 (centres unmarked)
green leaf area of the flag leaf / % leaf area: 98.8
//
Compound: CCCN(CC)CC1COC2(CCC(C(C)(C)C)CC2)O1 (centres unmarked)
green leaf area of the flag leaf / % leaf area: 98.3

compound Cn1cc(C(=O)Nc2ccc(F)cc2-c2ccc(Cl)c(Cl)c2)c(C(F)F)n1 , green leaf area of the flag leaf observed: 98.9

Per the records, this compound ( O=C(Nc1ccccc1-c1ccc(Cl)cc1)c1cccnc1Cl ) has green leaf area of the flag leaf equal to 96.0

---

time of heading of wheat (ears emerged) values for the molecules below.
- System: infection-free wheat plants of the cultivar Passat
- Test name: Glasshouse trial: time of heading (ear emergence)
- Format: in vivo
- Parameters: unit not given here
- Protocol conditions: 75 days after sowing
Write the number on its own, no unit after it.

Known results for molecules:
Molecule: CCCN(CC)CC1COC2(CCC(C(C)(C)C)CC2)O1 (stereo not shown)
Measured attribute: time of heading of wheat (ears emerged)
Val: 91.1
--
Molecule: OC(Cc1ccccc1Cl)(Cn1nc[nH]c1=S)C1(Cl)CC1 (stereo not shown)
Measured attribute: time of heading of wheat (ears emerged)
Val: 87.1
--
Molecule: Cn1cc(C(=O)Nc2ccc(F)cc2-c2ccc(Cl)c(Cl)c2)c(C(F)F)n1
Measured attribute: time of heading of wheat (ears emerged)
Val: 93.5

Switching to the query record.
The recorded time of heading of wheat (ears emerged) for CO/N=C(/C1=NOCCO1)c1ccccc1Oc1ncnc(Oc2ccccc2Cl)c1F is 87.8
